# TARGET_SYSTEM: P. falciparum apicoplast DNA polymerase (Pf-apPOL) (Plasmodium falciparum, UniProt Q8ILY1)
# Sequence (Q8ILY1 entry or part of it): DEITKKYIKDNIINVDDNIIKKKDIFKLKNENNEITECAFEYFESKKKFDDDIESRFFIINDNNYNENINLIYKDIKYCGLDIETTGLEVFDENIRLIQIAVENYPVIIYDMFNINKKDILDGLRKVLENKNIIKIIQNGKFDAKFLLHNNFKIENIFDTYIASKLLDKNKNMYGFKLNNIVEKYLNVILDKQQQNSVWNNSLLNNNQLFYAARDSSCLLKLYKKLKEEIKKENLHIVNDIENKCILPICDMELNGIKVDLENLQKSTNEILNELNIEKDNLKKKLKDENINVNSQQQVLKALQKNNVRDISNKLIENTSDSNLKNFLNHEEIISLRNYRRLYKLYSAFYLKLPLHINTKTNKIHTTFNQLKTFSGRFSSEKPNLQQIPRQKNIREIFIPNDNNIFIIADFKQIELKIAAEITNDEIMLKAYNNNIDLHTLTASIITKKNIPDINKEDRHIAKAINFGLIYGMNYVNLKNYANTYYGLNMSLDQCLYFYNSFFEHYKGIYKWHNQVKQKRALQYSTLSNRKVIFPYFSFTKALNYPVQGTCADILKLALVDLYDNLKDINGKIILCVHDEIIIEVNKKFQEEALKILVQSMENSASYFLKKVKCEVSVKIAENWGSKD
# MEASUREMENT_PROTOCOL: Fluorescence-based high-throughput DNA polymerase assay (molecular beacon), primary screen and dose-response
# Assay type: biochemical
# MEASUREMENT_SETUP: DRC-1; 90'; concentration 10
MEASURE_NAME: % inhibition Apol 90' (%)

>>> obs_value("O=[N+]([O-])/C=C/c1ccc(-c2ccc(Br)cc2)o1")
35.3896
>>> obs_value("CCCCSc1nnc2c(n1)OC(c1ccc([N+](=O)[O-])o1)Nc1ccccc1-2 (stereo not drawn)")
47.3098
>>> obs_value("CN(C)S(=O)(=O)Oc1ccc(-c2noc(-c3ccc(Oc4cc(Cl)cc(Cl)c4)o3)n2)cc1")
26.2984

###

Measured % inhibition Apol 40' 10 accompanies every entry in the list below.
# TARGET_SYSTEM: P. falciparum apicoplast DNA polymerase (Pf-apPOL) (Plasmodium falciparum, UniProt Q8ILY1)
# MEASUREMENT_PROTOCOL: Fluorescence-based high-throughput DNA polymerase assay (molecular beacon), primary screen and dose-response
# Assay type: biochemical
# MEASUREMENT_SETUP: DRC-2; read at 40'; concentration 10
MEASURE_NAME: % inhibition Apol 40' 10 (%)

>>> obs_value("CC(=O)Nc1cc(C(=O)c2cccs2)nn(-c2ccc(Cl)cc2)c1=O [KU0267905]")
15
>>> obs_value("Nc1cc(Oc2ccc(O)c(N)c2)ccc1O [KU0034728]")
57
>>> obs_value("Cc1ccsc1Cn1c(C)ccc1C [Molecule 70, Cc1ccsc1Cn1c(C)ccc1C]")
18
>>> obs_value("Cc1cc2[nH]c(C(=O)Nc3ccc(F)cc3)c(CN3CCOCC3)c2s1 [Molecule 60]")
21
>>> obs_value("Cc1ccc(N2CCC(NC(=O)Cc3cccs3)C2=O)cc1C (centres unmarked) [Molecule 57, O=C(NC1CCN(C1=O)c1ccc(c(c1)C)C)Cc1cccs1]")
32
>>> obs_value("N#Cc1c(O)nc(N2CCCCC2)nc1-c1ccc2c(c1)OCO2 [KU0083146]")
33
>>> obs_value("Cc1cccc(-c2noc(C(=O)NNC(=O)C(Cl)(Cl)Cl)n2)c1 [KU0266208]")
11
>>> obs_value("O=C1CSC2=NC3=C(CCc4ccccc43)C(c3cccs3)N12 (centres unmarked) [Molecule 59, O=C1CSC2=NC3=C(C(N12)c1cccs1)CCc1c3cccc1]")
28
>>> obs_value("Cn1nc(-c2nc(-c3ccccc3)no2)c2c1CCN(C(=O)Cc1cccs1)C2 [Molecule 58]")
24
>>> obs_value("CC(C)CC(C(=O)O)N1C(=O)C2C3C=CC(C2C1=O)C1C(=O)N(C(CC(C)C)C(=O)O)C(=O)C31 (centres unmarked) [KU0193449]")
12
>>> obs_value("CCCc1ccc(Oc2coc3cc(OC)ccc3c2=O)cc1 [KU0193249]")
17
>>> obs_value("Cc1nc(C)c2c(n1)N(CC1CCCCC1)C(=O)CC2 [KU0218606]")
36
>>> obs_value("C#CC(C=CC)OC(=O)c1ccccc1C(=O)O (centres unmarked) [Molecule 61, CC=CC(OC(=O)c1ccccc1C(=O)O)C#C]")
31
>>> obs_value("COc1ccc(/C=C/c2cc(C(=O)O)c3ccccc3n2)cc1 [Molecule 5, COc1ccc(cc1)/C=C/c1nc2ccccc2c(c1)C(=O)O]")
-66

###

# TARGET_SYSTEM: P. falciparum apicoplast DNA polymerase (Pf-apPOL) (Plasmodium falciparum, UniProt Q8ILY1)
# MEASUREMENT_PROTOCOL: Fluorescence-based high-throughput DNA polymerase assay (molecular beacon), primary screen and dose-response
# Format: biochemical
# MEASUREMENT_SETUP: DRC-2, 40', concentration 20
Measured % inhibition Apol 40' accompanies every entry in the list below.
MEASURE_NAME: % inhibition Apol 40'

>>> obs_value("O=C(NNC(=O)C(F)(F)Sc1ccccc1)c1ccsc1 [Molecule 68, O=C(C(Sc1ccccc1)(F)F)NNC(=O)c1cscc1]")
"27%"
>>> obs_value("CN(C)C=CC(=O)c1ccccn1 [Molecule 64, CN(C=CC(=O)c1ccccn1)C]")
"41%"
>>> obs_value("O=C(O)CC1=NN(c2cccc([N+](=O)[O-])c2)C(=O)C1 [KU0100531]")
"39%"
>>> obs_value("COc1ccc2c(c1)CCc1c-2nc2ccc(Br)cc2c1C(=O)O [KU0059417]")
"39%"
>>> obs_value("CCOc1ccccc1-c1nc(-c2ccc(=O)[nH]c2)no1 [Molecule 76, CCOc1ccccc1c1onc(n1)c1ccc(=O)[nH]c1]")
"30%"
>>> obs_value("CSC(C)C(=O)C=CN(C)C (centres unmarked) [Molecule 71, CSC(C(=O)C=CN(C)C)C]")
"42%"
>>> obs_value("CCSc1nnc(NC(=O)Cc2csc(NC(=O)c3cnccn3)n2)s1 [Molecule 79]")
"40%"
>>> obs_value("COc1ccccc1CCC(=O)N1CCc2c(nc3cc(-c4ccccc4)[nH]n3c2=O)C1 [Molecule 7]")
"64%"
>>> obs_value("O=C(O)C(=O)Nc1nc(-c2ccc3c(c2)OCCO3)cs1 [Molecule 82, OC(=O)C(=O)Nc1scc(n1)c1ccc2c(c1)OCCO2]")
"28%"
>>> obs_value("O=C(Nc1nnc(-c2cccs2)o1)c1ccc([N+](=O)[O-])o1 [Molecule 74]")
"36%"
>>> obs_value("CN1CC(=Cc2ccco2)C(=O)C(=Cc2ccco2)C1 [Molecule 65, CN1CC(=Cc2ccco2)C(=O)C(=Cc2ccco2)C1]")
"43%"
>>> obs_value("CN(C)C=C1SCc2ccccc2C1=O [Molecule 77, CN(C=C1SCc2c(C1=O)cccc2)C]")
"26%"
>>> obs_value("O=C(O)CC1SC(c2ccc3c(c2)OCO3)=NC1=O (centres unmarked) [Molecule 69, OC(=O)CC1SC(=NC1=O)c1ccc2c(c1)OCO2]")
"23%"
>>> obs_value("CSCCC(C)(O)CNC(=O)C1CC1 (centres unmarked) [KU0200150]")
"33%"
>>> obs_value("O=C(Nc1nnc(-c2ccno2)o1)c1ccc2c(c1)OCO2 [KU0171343]")
"14%"
>>> obs_value("CO/N=C(\\C(=O)N[C@@H]1C(=O)N2C(C(=O)[O-])=C(CSc3nc(=O)c([O-])nn3C)CSC12)c1csc(N)n1.[Na+].[Na+] (some centres unmarked) [Molecule 83]")
"20%"
>>> obs_value("Cn1nc(C(=O)N2CCc3c(nc4cc(-c5ccccc5)[nH]n4c3=O)C2)c2ccccc21 [Molecule 18]")
"54%"
>>> obs_value("CS(=O)(=O)c1cccc(C(=O)Nc2nnc(-c3ccno3)o2)c1 [KU0171319]")
"17%"
>>> obs_value("Oc1ccc(N=Nc2ccccc2)c(O)c1 [Molecule 80, Oc1ccc(c(c1)O)N=Nc1ccccc1]")
"29%"
>>> obs_value("O=c1cc(-c2ccccc2)oc2c(O)c(O)ccc12 [Molecule 84, Oc1ccc2c(c1O)oc(cc2=O)c1ccccc1]")
"23%"

###

# TARGET_SYSTEM: P. falciparum apicoplast DNA polymerase (Pf-apPOL) (Plasmodium falciparum, UniProt Q8ILY1)
# MEASUREMENT_PROTOCOL: Fluorescence-based high-throughput DNA polymerase assay (molecular beacon), primary screen and dose-response
# Format: biochemical
# MEASUREMENT_SETUP: primary screen value, head "DNA Pol",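 compound concentration given in µM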; 90 min, 10 µM
MEASURE_NAME: DNA Pol

>>> obs_value("Cc1ccc(CCNC(=O)c2cnn3c(O)c(Cc4ccccc4F)c(C)nc23)cc1 [KU0097142]")
48
>>> obs_value("OC(C#Cc1ccccc1)c1ccco1 (centres unmarked) [Molecule 95, OC(c1ccco1)C#Cc1ccccc1]")
70
>>> obs_value("CCN1C(=O)C(=Cc2cccc(OC)c2O)SC1=S [Molecule 78, CCN1C(=S)SC(=Cc2cccc(c2O)OC)C1=O]")
43
>>> obs_value("NS(=O)(=O)c1ccc(NC(=O)c2ccc(N3C(=O)CCC3=O)cc2)cc1 [KU0025331]")
32
>>> obs_value("CCCCSc1nnc2c(n1)OC(c1ccc([N+](=O)[O-])o1)Nc1ccccc1-2 (centres unmarked) [KU0065811]")
52
>>> obs_value("O=C1N/C(=N/c2ccccc2Cl)S/C1=C/c1ccc([N+](=O)[O-])o1 [KU0054524]")
44
>>> obs_value("Oc1cccc2ccc(/C=C/c3ccc4c(c3)OCO4)nc12 [KU0025984]")
45
>>> obs_value("O=[N+]([O-])/C=C/c1ccc(-c2ccc(Br)cc2)o1 [Molecule 31, O=N(=O)/C=C/c1ccc(o1)c1ccc(cc1)Br]")
57

###

# TARGET_SYSTEM: UniProtKB Q8ILY1
# MEASUREMENT_PROTOCOL: Fluorescence-based high-throughput DNA polymerase assay (molecular beacon), primary screen and dose-response
# Assay type: biochemical
# MEASUREMENT_SETUP: DRC-1; 90'; concentration 10
# Source text: The HT assay employs a molecular beacon, a stem-loop DNA template with a Cy3 dye and the Black Hole Quencher on the 3′ and 5′ ends of the DNA, respectively. Pf-apPOL concentration is based on a calculated absorptivity of ε280 = 56750 M^−1 cm^−1. […] To identify apPOL inhibitors we utilised our previously developed high-throughput DNA polymerase assay. […] The assay accurately recapitulates the kinetic behaviour of apPOL, as measured through more conventional low-throughput gel-based assays. […]
Measured % inhibition Apol 90' accompanies every entry in the list below.
MEASURE_NAME: % inhibition Apol 90' (%)

>>> obs_value("CC1(C)CC(=O)C2=C(C1)OC1=C(C(=O)CC(C)(C)C1)C2c1ccc(O)cc1")
20.1854
>>> obs_value("O=C(O)c1ccc(-c2nc3cc(-c4ccc5nc(-c6ccc(C(=O)O)cc6)[nH]c5c4)ccc3[nH]2)cc1")
67.3465
>>> obs_value("COc1ccc2c(c1)CCc1c-2nc2ccc(Br)cc2c1C(=O)O")
30.3823
>>> obs_value("O=C(O)CC1=NN(c2cccc([N+](=O)[O-])c2)C(=O)C1")
28.2695
>>> obs_value("O=C(O)C(=O)Nc1nc(-c2ccc3c(c2)OCCO3)cs1")
21.2379
>>> obs_value("O=C1N/C(=N/c2ccccc2Cl)S/C1=C/c1ccc([N+](=O)[O-])o1")
26.4398
>>> obs_value("Cc1ccc(C)c(CSc2nc(C3CCCCC3)c(C#N)c(=O)[nH]2)c1")
66.2339
>>> obs_value("CS(=O)(=O)c1cccc(C(=O)Nc2nnc(-c3ccno3)o2)c1")
14.1125
>>> obs_value("O=c1[nH]c2ccc(Br)cc2c(-c2ccccc2)c1C1=NNC(c2ccco2)C1 (stereo not shown)")
32.8734
>>> obs_value("O=[N+]([O-])c1ccc(/C=C/c2ccc3ccccc3n2)o1")
59.8691
>>> obs_value("CCCCCCCCCCCCCCCCCC(=O)CCN(C)C")
15.0466
>>> obs_value("Cc1ccccc1C(=O)N1CCc2c(nc3cc(-c4ccccc4)[nH]n3c2=O)C1")
31.8176
>>> obs_value("COc1ccccc1CCC(=O)N1CCc2c(nc3cc(-c4ccccc4)[nH]n3c2=O)C1")
54
>>> obs_value("CCCCc1ccc(NC(=O)CSc2nc(O)c(C#N)c(C3CCCCC3)n2)c(C)c1")
58.4598
>>> obs_value("O=[N+]([O-])c1cc2c(cc1CN1CCCCCC1)OCO2")
9.436
>>> obs_value("Cc1nn(CC(=O)NCCSCc2ccco2)c(C)c1Br")
7.223
>>> obs_value("CCSc1nnc(NC(=O)Cc2csc(NC(=O)c3cnccn3)n2)s1")
-1.729
>>> obs_value("COc1ccc(-c2cc(=O)c3cc(O)ccc3o2)cc1OC")
17.1119
>>> obs_value("COc1ccc(S(=O)(=O)/N=C2\\NC(=O)/C(=C3\\C(=O)Nc4ccc([N+](=O)[O-])cc43)S2)cc1")
25.9736
>>> obs_value("Cc1ncc(CSc2nc(C(C)(C)C)cs2)c(CO)c1O")
8.991
>>> obs_value("COc1ccc(-c2c(C(F)(F)F)nn3c(=O)cc(-c4cccc([N+](=O)[O-])c4)[nH]c23)cc1")
48.4616
>>> obs_value("COc1ccc(C=C2Oc3c(ccc4c3CN(c3ccc5c(c3)OCO5)CO4)C2=O)cc1OC")
37.0525
>>> obs_value("O=C(c1c[nH]c2ncccc12)N1CCCCCC1 [Molecule 51, O=C(c1c[nH]c2c1cccn2)N1CCCCCC1]")
3.081
>>> obs_value("O=C1c2ccccc2C(=O)N1Oc1ccc([N+](=O)[O-])c([N+](=O)[O-])c1")
13.1271
>>> obs_value("CC(C)(C)c1cc(C(=O)C(C#N)=NNc2cccc(Cl)c2)no1")
54.1185
